# TEST SYSTEM: T1, human CC chemokine receptor 4 (CCR4) (human, UniProt P51679 1-360)
# T1 sequence (looked up): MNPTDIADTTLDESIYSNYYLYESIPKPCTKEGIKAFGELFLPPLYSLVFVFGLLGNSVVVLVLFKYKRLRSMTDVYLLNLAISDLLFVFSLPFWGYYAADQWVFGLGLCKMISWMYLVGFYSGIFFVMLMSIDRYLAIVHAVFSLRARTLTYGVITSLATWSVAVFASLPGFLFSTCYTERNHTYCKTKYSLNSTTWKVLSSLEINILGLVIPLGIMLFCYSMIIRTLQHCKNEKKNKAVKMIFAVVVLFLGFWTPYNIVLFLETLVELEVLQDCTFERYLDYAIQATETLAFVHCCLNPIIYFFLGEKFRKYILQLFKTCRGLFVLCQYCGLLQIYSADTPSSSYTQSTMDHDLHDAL
# MEASUREMENT PROTOCOL: cell-based or functional assay
VALUE TYPE: ADCC on CCRF-CEM cells with human PBMCs, EC50 (pM)
Reply numerically in pM, unit not repeated.

Solved entries (count: 3):
IgG form of antibody 503 (defucosylated IgG1) (antibody, V domains shown, Human IgG1, lambda light chain; produced in presence of Kifunensine (defucosylated); Biotinylated via cysteines for the human serum experiment) VH: QVQLVQSGAEVKKPGSSVKVSCKASEGTFSSYAMSWVRQAPGQGLEWMGGIIPIFGTVNYAQKFQGRVTMTRDTSTSTVYMELSSLRSDDTAVYYCARRRGAKFDYWGQGTLVTVSS VL: SYVLTQPPSASGTPGQSVTISCSGSTSNIGSHYVVWYQQLPGTAPRLLIYRNHQRPSGVPDRLSGSKSGTSASLAIGGLRSEDEADYYCAVWDDTLSGWVFGGGTKLTVLG: 5.3
IgG form of antibody 306 (defucosylated IgG1) (antibody, V domains shown, Human IgG1, lambda light chain; produced in presence of Kifunensine (defucosylated); Biotinylated via cysteines for the human serum experiment) VH: QVQLVQSGAEVKKPGSSVKVSCKASGGTFSSYAMSWVRQAPGQGLEWMGGIIPIFGTVNYAQKFQGRVTMTRDTSTSTVYMELSSLRPDDTAVYYCARRGGSYFDYWGQGTLVTVSS VL: SYVLTQPPSASGTPGQSVTISCSGSTSNIGSHYVSWYQQLPGTAPRLLIYRNHQRPSGVPDRLSGSKSGTSASLAISGLRSEDEADYYCAVWDAKYRGWVFGGGTKLTVLG: 114
IgG form of antibody 406 (defucosylated IgG1) (antibody, V domains shown, Human IgG1, lambda light chain; produced in presence of Kifunensine (defucosylated); Biotinylated via cysteines for the human serum experiment) VH: QVQLVQSGAEVKKPGSSVKVSCKASEGTFSSYAMSWVRQAPGQGLEWMGGIIPIFGTVNYAQKFQGRVTMTRDTSTSTVYMELSSLRSDDTAVYYCARRGGSYFDYWGQGTLVTVSS VL: SYVLTQPPSASGTPGQSVTISCSGSTSNIGSHYVSWYQQLPGTAPRLLIYRNHQRPSGVPDRLSGSKSGTSASLAISGLRSEDEADYYCAVWDAKYRGWVFGGGTKLTVLG: 99.9

Let us move to another entry and its ADCC on CCRF-CEM cells with human PBMCs, EC50.
(Q) Would you mind telling me what ADCC on CCRF-CEM cells with human PBMCs, EC50 value was observed for KW0761 IgG (antibody, V domains shown) VH: EVQLVESGGDLVQPGRSLRLSCAASGFIFSNYGMSWVRQAPGKGLEWVATISSASTYSYYPDSVKGRFTISRDNAKNSLYLQMNSLRVEDTALYYCGRHSDGNFAFGYWGQGTLVTVSS VL: DVLMTQSPLSLPVTPGEPASISCRSSRNIVHINGDTYLEWYLQKPGQSPQLLIYKVSNRFSGVPDRFSGSGSGTDFTLKISRVEAEDVGVYYCFQGSLLPWTFGQGTKVEIK ?
(A) 315
